# Anti-CD28 Fab signal (phage binding ELISA) per record follows
- test.target: T1, Anti-CD28 Fab (SEQ ID NOs: 696, 697)
- T1 construct: In the phage ELISA the Fab was biotinylated and captured on neutravidin coated plates
- T1 sequence (VH, as listed by the source, chain 1 of 2): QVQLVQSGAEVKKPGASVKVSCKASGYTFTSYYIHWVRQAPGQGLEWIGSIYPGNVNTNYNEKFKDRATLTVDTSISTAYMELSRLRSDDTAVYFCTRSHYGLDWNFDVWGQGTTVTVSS
- T1 sequence (VL, as listed by the source, chain 2 of 2): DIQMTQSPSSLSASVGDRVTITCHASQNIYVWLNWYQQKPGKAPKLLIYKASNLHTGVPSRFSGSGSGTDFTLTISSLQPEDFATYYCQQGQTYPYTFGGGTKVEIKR
- experiment.notes: phage ELISA; biotinylated anti-CD28 Fab on neutravidin plate, clonal phage supernatant, anti-M13 HRP
Where no end group is shown, it is not given here.
// return a plain number; no unit text

Below: 5 binders and their reported Anti-CD28 Fab signal (phage binding ELISA).
| binder | observed.value |
| --- | --- |
| YCEGHSSEYLGKCL (cysteine pairing not given here; also: displayed on phage by fusion to pIII, linker and pIII sequence not given here) [Phage-1199] | 1.05 |
| YCDGHAPIYMQKCL (cysteine pairing not given here; also: displayed on phage by fusion to pIII, linker and pIII sequence not given here) [Phage-1196] | 1.06 |
| YCEGHLWEYMKKCL (cysteine pairing not given here; also: displayed on phage by fusion to pIII, linker and pIII sequence not given here) [Phage-1197] | 1.06 |
| YCDGHLPRYMEKCM (cysteine pairing not given here; also: displayed on phage by fusion to pIII, linker and pIII sequence not given here) [Phage-1200] | 1.05 |
| YCEGHSVEYILKCL (cysteine pairing not given here; also: displayed on phage by fusion to pIII, linker and pIII sequence not given here) [Phage-1206] | 1.04 |

Consider the record given below.
Please fill in: Anti-CD28 Fab signal (phage binding ELISA) reported for YCDGHSSAYIDKCL (cysteine pairing not given here; also: displayed on phage by fusion to pIII, linker and pIII sequence not given here) [Phage-1201] = 1.05
